Kindly supply the reported PE-ELISA (ratio to uncoated well) values for the records listed here.
- systemUnderTest: T1, mouse folate receptor alpha (mFRα), recombinant protein (mouse, UniProt P35846 25-232)
- T1 construct: Bought recombinant proteins (e.g. biotinylated, Acro Biosystems FO1-M82E9); also called mFOLR1; Ms FOLR1
- T1 sequence (P35846 25-232 limits assumed): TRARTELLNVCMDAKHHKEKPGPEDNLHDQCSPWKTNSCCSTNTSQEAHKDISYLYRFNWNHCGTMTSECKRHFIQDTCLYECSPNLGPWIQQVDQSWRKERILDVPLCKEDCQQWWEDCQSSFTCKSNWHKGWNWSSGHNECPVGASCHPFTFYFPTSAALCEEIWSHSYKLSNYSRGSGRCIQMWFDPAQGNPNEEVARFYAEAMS
- procedureSummary: ELISA, periplasmic extract

The following binders have reported results that may help.
INSERT INTO measurements (binder, measured) VALUES
  ('VHH 2HFO19 (family 1) (VHH, also called Nb19) VHH: QVQLQESGGGLVQPGGSLRVSCAASGFPFSTVYMSWVRQAPGKGLEWVSGINNDGGVIDYADSVKGRFTISRDNAKNTLYLQLNSLKPEDTALYFCARGRSFVATLSSSLRGQGTQVTVSS', 14.2),
  ('VHH 2HFO42 (family 3) (VHH, also called 2HF042; Nb42) VHH: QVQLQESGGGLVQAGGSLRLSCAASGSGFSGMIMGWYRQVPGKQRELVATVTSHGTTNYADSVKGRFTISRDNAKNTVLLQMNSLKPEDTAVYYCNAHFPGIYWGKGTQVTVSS', 12.2);

List reported PE-ELISA (ratio to uncoated well) for each of these binders:
1. VHH 3HFO26 (family 1) (VHH) VHH: QVQLQESGGGLVQPGGSLRITCVASGFPFSTYYMSWVRQAPGKGLEWVSGINSNGGVIDYADSVKGRFTISRDNAKNTLYLQLNSLKPEDTALYFCARGRAFVATMPSSLRGQGTQVTVSS
2. VHH 3HFO28 (family 7) (VHH) VHH: QVQLQESGGGLVQPGGSLRLSCAASGSTLDRYEIGWFRQAPGKGRERVSCISTTSSTYEDSVKGRFTISRDNAKNTVYLQMNSLKPEDTAVYYCATVRVAWSTCFPTGDSWGKGTQVTVSS
3. VHH 3MFR60 (family 10) (VHH) VHH: QVQLQESGGGLVQAGGSLRVSCAASGIIFSMNGMGWFRQAPGKQRELVASITSGGSTKYADSVKGRFTISRDNAKNTVYLQMNSLKPEDTAVYYCNIQFGSRWSTYWGQGTQVTVSS
4. VHH 2MFR7 (family 1) (VHH, also called 2MFRO7) VHH: QVQLQESGGGLVQPGGSLRLSCAASGFPFSTYYMSWVRQAPGKGLEWVSGINSNGGVIDYADSVKGRFTISRDNAKNTLYLQLNSLKPEDTALYFCARGRAFVATMPSSLRGQGTQVTVSS

# output
[4.9, 34.9, 4.9, 14.1]
